Reference source: patent US20030083271A1

So I've got a bunch of compounds here, and I need their log10 of EC50 values.
molecular target: UniProtKB P11387; assay: Topoisomerase I-mediated single strand DNA break induction (in vitro); conditions: median effect concentration for inducing single-strand breaks in the DNA substrate; read-out: Topo I EC50
Recall that a logarithmic scale is used here: each number is log10 of EC50 in nM.

The following compounds have reported results that may help.
## Task I'd like to know its log10 of EC50. The compound in question is "O=C1NC(=O)c2c1c1c3cc(F)c(F)cc3sc1c1c2c2cc(F)c(F)cc2n1[C@@H]1O[C@H](CF)[C@@H](O)[C@H](O)[C@H]1O"
## Result 2.08

## Task I'd like to know its log10 of EC50. The compound in question is "NC[C@H]1O[C@@H](n2c3ccc(F)cc3c3c4c(c5c6cc(F)ccc6sc5c32)C(=O)NC4=O)[C@H](O)[C@@H](O)[C@@H]1O"
## Result 1.85

## Task I'd like to know its log10 of EC50. The compound in question is "[N-]=[N+]=N[C@H]1[C@H](O)[C@@H](O)[C@H](n2c3ccc(F)cc3c3c4c(c5c6cc(F)ccc6[nH]c5c32)C(=O)NC4=O)O[C@@H]1CO"
## Result 1.30

## Task I'd like to know its log10 of EC50. The compound in question is "NC[C@H]1O[C@@H](n2c3cc(F)c(F)cc3c3c4c(c5c6cc(F)c(F)cc6sc5c32)C(=O)NC4=O)[C@H](O)[C@@H](O)[C@@H]1F"
## Result 1.30

## Task I'd like to know its log10 of EC50. The compound in question is "O=C1NC(=O)c2c1c1c3cc(F)ccc3[nH]c1c1c2c2cc(F)ccc2n1[C@@H]1O[C@H](CF)C[C@H](O)[C@H]1O"
## Result 1.48

## Task I'd like to know its log10 of EC50. The compound in question is "O=C1NC(=O)c2c1c1c3cc(F)c(F)cc3sc1c1c2c2cc(F)c(F)cc2n1[C@@H]1O[C@H](CO)[C@@H](F)[C@H](O)[C@H]1O"
## Result 1.70

## Task I'd like to know its log10 of EC50. The compound in question is "NC[C@H]1O[C@@H](n2c3ccc(F)cc3c3c4c(c5c6ccccc6sc5c32)C(=O)NC4=O)[C@H](O)[C@@H](O)[C@@H]1O"
## Result 2.26

## Task I'd like to know its log10 of EC50. The compound in question is "O=C1NC(=O)c2c1c1c3cc(F)ccc3[nH]c1c1c2c2cc(F)ccc2n1[C@@H]1O[C@H](CO)C(F)(F)[C@H](O)[C@H]1O"
## Result 1.00

Would you mind giving log10 of EC50 for every compound in the list below?
1. [N-]=[N+]=N[C@H]1[C@@H](O)[C@@H](O)[C@H](n2c3ccc(F)cc3c3c4c(c5c6cc(F)ccc6[nH]c5c32)C(=O)NC4=O)O[C@@H]1CF
2. O=C(O)CSC[C@H]1O[C@@H](n2c3ccc(F)cc3c3c4c(c5c6cc(F)ccc6[nH]c5c32)C(=O)NC4=O)[C@H](O)[C@@H](O)[C@@H]1O
3. O=C1NC(=O)c2c1c1c3cc(F)c(F)cc3[nH]c1c1c2c2cc(F)c(F)cc2n1[C@@H]1O[C@H](CO)C[C@H](O)[C@H]1O
4. O=C1NC(=O)c2c1c1c3cc(F)c(F)cc3sc1c1c2c2cc(F)c(F)cc2n1[C@@H]1O[C@H](CF)[C@@H](F)[C@H](O)[C@H]1O
5. O=C1NC(=O)c2c1c1c3cc(F)c(F)cc3[nH]c1c1c2c2cc(F)c(F)cc2n1[C@@H]1O[C@H](CF)C[C@@H](F)[C@H]1O

## Result
1. 1.78
2. 1.70
3. 1.85
4. 2.11
5. 2.65

* * *

System: HCT-116 colon carcinoma
Assay: In vivo antitumor activity, HCT-116 xenograft
Parameters: species or system Balb/c athymic (nude) female mice
Conditions: HT116 xenograft experiment, nude mice
Experimental: Compounds: Examples of this invention were administered in an appropriate vehicle such as cremophor/ethanol/water (10%/10%/80%), in normal saline, water/carboxymethylcellulose vehicle. All compounds were tested at several dose levels, with attempts each time to achieve their maximum tolerated dose (MTD). […] Tumors were measured by calipers, and tumor weight calculated by the formula length (mm) times (×) width (mm)^2/2=tumor weight (mg). […]
So I've got a bunch of compounds here, and I need their MTD (optimal or maximum tolerated dose level tested) values.
One number for each entry, in mpkpi.

## Task I'd like to know its MTD (optimal or maximum tolerated dose level tested). The compound in question is "O=C1NC(=O)c2c1c1c3cc(F)c(F)cc3sc1c1c2c2cc(F)c(F)cc2n1[C@@H]1O[C@H](CO)[C@@H](F)[C@H](O)[C@H]1O"
## Result 10

## Task I'd like to know its MTD (optimal or maximum tolerated dose level tested). The compound in question is "O=C1NC(=O)c2c1c1c3cc(F)ccc3[nH]c1c1c2c2cc(F)ccc2n1[C@@H]1O[C@H](CF)[C@@H](F)[C@H](O)[C@H]1O"
## Result 8

Note: attention shifts to another entry.
## Task I'd like to know its MTD (optimal or maximum tolerated dose level tested). The compound in question is "O=C1NC(=O)c2c1c1c3cc(F)ccc3[nH]c1c1c2c2cc(F)ccc2n1[C@@H]1O[C@H](CO)[C@@H](F)[C@H](O)[C@H]1O"
## Result 10

* * *

system: HT-29 colon carcinoma; test: In vivo antitumor activity, HT-29 xenograft; parameters: species or system Balb/c athymic (nude) female mice; details: HT29 xenograft experiment, nude mice
So I've got a bunch of compounds here, and I need their MTD (optimal or maximum tolerated dose level tested) values.
One number for each entry, in mpkpi.

## Task # get_value(readout= MTD (optimal or maximum tolerated dose level tested), system= HT-29 colon carcinoma) for "O=C1NC(=O)c2c1c1c3cc(F)ccc3[nH]c1c1c2c2cc(F)ccc2n1[C@@H]1O[C@H](CF)[C@@H](F)[C@H](O)[C@H]1O"
## Result 11

Would you mind giving MTD (optimal or maximum tolerated dose level tested) for every compound in the list below?
1. O=C1NC(=O)c2c1c1c3cc(F)ccc3[nH]c1c1c2c2cc(F)ccc2n1[C@@H]1O[C@H](CO)[C@@H](F)[C@H](O)[C@H]1O
2. O=C1NC(=O)c2c1c1c3cc(F)c(F)cc3sc1c1c2c2cc(F)c(F)cc2n1[C@@H]1O[C@H](CO)[C@@H](F)[C@H](O)[C@H]1O

## Result
15
11

## Task # get_value(readout= MTD (optimal or maximum tolerated dose level tested), system= HT-29 colon carcinoma) for "O=C1NC(=O)c2c1c1c3cc(F)c(F)cc3sc1c1c2c2cc(F)c(F)cc2n1[C@@H]1O[C@H](CO)C(F)(F)[C@H](O)[C@H]1O"
## Result 16

* * *

System: HCT-116 colon carcinoma
Assay: In vivo antitumor activity, HCT-116 xenograft
Set-up: species or system Balb/c athymic (nude) female mice
Conditions: HT116 sc xenograft in nude mice, at optimal or maximum tolerated dose; CPT-11 run as comparator in same experiment
Experimental: Compounds: Examples of this invention were administered in an appropriate vehicle such as cremophor/ethanol/water (10%/10%/80%), in normal saline, water/carboxymethylcellulose vehicle. All compounds were tested at several dose levels, with attempts each time to achieve their maximum tolerated dose (MTD). […] Tumors were measured by calipers, and tumor weight calculated by the formula length (mm) times (×) width (mm)^2/2=tumor weight (mg). […]
So I've got a bunch of compounds here, and I need their LCK (gross log cell kill) values.
Numbers only.

## Task I'd like to know its LCK (gross log cell kill). The compound in question is O=C1NC(=O)c2c1c1c3cc(F)c(F)cc3sc1c1c2c2cc(F)c(F)cc2n1[C@@H]1O[C@H](CO)[C@@H](F)[C@H](O)[C@H]1O [Example 33]
## Result 2.3

More entries:
## Task I'd like to know its LCK (gross log cell kill). The compound in question is O=C1NC(=O)c2c1c1c3cc(F)ccc3[nH]c1c1c2c2cc(F)ccc2n1[C@@H]1O[C@H](CO)[C@@H](F)[C@H](O)[C@H]1O [Example 24]
## Result 1.3

* * *

molecular target: purified human topoisomerase I (Homo sapiens); test: Topoisomerase I-mediated single strand DNA break induction (in vitro); settings: median effect concentration for inducing single-strand breaks in the DNA substrate; read-out: Topo I EC50
Sequence (P11387 whole entry): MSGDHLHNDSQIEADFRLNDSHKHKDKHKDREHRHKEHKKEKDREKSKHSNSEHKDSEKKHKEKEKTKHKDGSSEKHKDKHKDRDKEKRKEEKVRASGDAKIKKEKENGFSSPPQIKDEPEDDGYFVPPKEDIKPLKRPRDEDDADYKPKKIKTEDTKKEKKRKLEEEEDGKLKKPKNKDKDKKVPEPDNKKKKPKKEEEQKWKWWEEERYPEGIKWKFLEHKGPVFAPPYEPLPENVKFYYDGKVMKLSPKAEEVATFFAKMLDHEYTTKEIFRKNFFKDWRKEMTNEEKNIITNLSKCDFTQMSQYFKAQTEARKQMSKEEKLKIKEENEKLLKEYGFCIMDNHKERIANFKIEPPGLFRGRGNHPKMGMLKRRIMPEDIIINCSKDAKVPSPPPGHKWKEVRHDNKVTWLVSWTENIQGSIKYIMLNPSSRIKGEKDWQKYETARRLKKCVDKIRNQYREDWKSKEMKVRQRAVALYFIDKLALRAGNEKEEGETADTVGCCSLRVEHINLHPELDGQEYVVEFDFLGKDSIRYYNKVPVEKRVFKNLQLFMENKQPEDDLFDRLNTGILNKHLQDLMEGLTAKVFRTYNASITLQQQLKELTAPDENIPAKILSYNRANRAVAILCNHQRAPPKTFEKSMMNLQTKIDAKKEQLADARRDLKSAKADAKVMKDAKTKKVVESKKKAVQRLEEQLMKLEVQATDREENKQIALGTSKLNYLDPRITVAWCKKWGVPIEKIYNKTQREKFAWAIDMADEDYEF
So I've got a bunch of compounds here, and I need their log10(EC50) values.
Recall that a logarithmic scale is used here: each number is log10 of EC50 in nM.

## Task I'd like to know its log10(EC50). The compound in question is "O=C1NC(=O)c2c1c1c3cc(F)c(F)cc3[nH]c1c1c2c2cc(F)c(F)cc2n1[C@@H]1O[C@H](CF)[C@@H](F)[C@H](O)[C@H]1O"
## Result 1.90

## Task I'd like to know its log10(EC50). The compound in question is C[S+]([O-])C[C@H]1O[C@H](n2c3ccc(F)cc3c3c4c(c5c6cc(F)ccc6[nH]c5c32)C(=O)NC4=O)[C@H](O)[C@@H](O)[C@@H]1O (stereo partly drawn)
## Result 1.00

## Task I'd like to know its log10(EC50). The compound in question is "O=C1NC(=O)c2c1c1c3cc(F)ccc3sc1c1c2c2cc(F)ccc2n1[C@@H]1O[C@H](CF)[C@@H](O)[C@H](O)[C@H]1O"
## Result 1.78

## Task I'd like to know its log10(EC50). The compound in question is "O=C1NC(=O)c2c1c1c3cc(F)c(F)cc3[nH]c1c1c2c2cc(F)c(F)cc2n1[C@@H]1O[C@H](CO)[C@@H](F)[C@H](O)[C@H]1O"
## Result 1.70

## Task I'd like to know its log10(EC50). The compound in question is "O=C1NC(=O)c2c1c1c3cc(F)ccc3[nH]c1c1c2c2cc(F)ccc2n1[C@@H]1O[C@H](CF)[C@@H](F)[C@H](O)[C@H]1O"
## Result 2.18

Note: attention shifts to another entry.
## Task I'd like to know its log10(EC50). The compound in question is "O=C1NC(=O)c2c1c1c3ccc(F)cc3[nH]c1c1c2c2ccc(F)cc2n1[C@@H]1O[C@H](CO)[C@@H](O)[C@H](O)[C@H]1O"
## Result 2.38
